Where do the numbers come from? From PubChem BioAssay (NCI).

# Tested on: A498 renal
# Run Description: NCI-60 one-dose screen, 48 h (100 = growth as untreated, 0 = no growth, -100 = all killed)
# Experimental Context: 10 µM
# Experimental: Growth inhibition of the A498 human tumor cell line is measured as a screen for anti-cancer activity. Cells are grown in 96 well plates and exposed to the test compound for 48 hours. Compounds are tested at a single concentration, which is 10^-5 M for most compounds. The reported endpoint is percent growth (GI% or GIPRCNT), where numbers from 0 - 100% represent growth inhibition, and numbers from -100% - 0 represent cell death. For example, a value of 40 represents 60% growth inhibition. […]
The panel holds about 83,000 compounds, 20% with a hit somewhere; the sample as a whole holds those more often.
Measurement Name: growth (%)
Just the number please, in %, no unit attached.

> print(dat)
                                   compound  scale.unit  assay.value
1  C=C1CCC2C3(C)COC(c4ccccc4F)OC3CCC2(C)C1C/C=C1/C(=O)OCC1O (stereo not given)           %          101
2  CONC[C@]1(C)C=C2C(=O)[C@](C)(O)C3(CC3)C(C)=C2[C@H]1O           %        -29.7
3  COc1cc2c(cc1OC)CN(CCCCOc1cc(O)c3c(=O)cc(-c4ccccc4)oc3c1)CC2           %          127
4  CC1(c2ccccc2)NC(=O)N(CC(=O)Nc2ccc(C(=O)/C=C/C=C/c3ccccc3)cc2)C1=O (stereo not given)           %         70.6

For the next question, use this compound.
Recorded growth for "CC(C)(C)Nc1nc2cc(Cl)c(Cl)cc2nc1S(C)(=O)=O" , please?
142

----------
# Tested on: ACHN renal
# Run Description: NCI-60 one-dose screen, 48 h (100 = growth as untreated, 0 = no growth, -100 = all killed)
# Experimental Context: 10 µM
About 83,000 compounds went through this panel and 20% of them were active in at least one assay; those are over-represented in the sample as a whole.
Measurement Name: growth (%)
Just the number please, in %, no unit attached.

Answered examples (5):
> print(dat)
                                   compound  system.name  measurement.name  assay.value
1  CCCCCc1ccc(S(=O)(=O)Nc2cc(-c3csc(N(C)C(C)=O)n3)ccc2N2CCN(C)CC2)cc1   ACHN renal            growth         13.7
2     COc1ccc(-c2c(N)c(=O)n(C)c3ccccc23)cc1   ACHN renal            growth         59.4
3  C/C(=C\CSc1ccccc1C(=O)O)CCCC(C)CCCC(C)CCCC(C)C (stereo unspecified)   ACHN renal            growth         37.5
4  CCCCCCCCCCCCCCCCCCCC(=O)NCCc1c[nH]c2ccc(O)cc12   ACHN renal            growth         98.8
5  O=C(CS(=O)(=O)c1oc(-c2ccc(Cl)cc2)nc1S(=O)(=O)c1ccccc1)N1CCCC1   ACHN renal            growth         -100

For the next question, use this compound.
Recorded growth for "O=C1Nc2cc(-c3ccc(NC(=O)c4cccs4)cc3)ccc2/C1=C/c1ccc[nH]1" , please?
82

----------
molecules and their reported growth
# Test system: HS 578T breast
# Run Description: NCI-60 one-dose screen, 48 h (100 = growth as untreated, 0 = no growth, -100 = all killed)
# Experimental Context: 10 µM
# Description: Growth inhibition of the HS 578T human tumor cell line is measured as a screen for anti-cancer activity. Cells are grown in 96 well plates and exposed to the test compound for 48 hours. Compounds are tested at a single concentration, which is 10^-5 M for most compounds. The reported endpoint is percent growth (GI% or GIPRCNT), where numbers from 0 - 100% represent growth inhibition, and numbers from -100% - 0 represent cell death. For example, a value of 40 represents 60% growth inhibition. […]
Compounds without any hit were thinned out: in the full panel of roughly 83,000, 20% have a hit.
Just the number please, in %, no unit attached.

> print(dat)
                                   molecule  assay.value
1  CONC[C@]1(C)C=C2C(=O)[C@](C)(O)C3(CC3)C(C)=C2[C@H]1O        -12.4
2  COc1ccc(C(=O)Nc2sc3c(c2C#N)CCC(=O)C3)cc1C(F)(F)F        -11.7
3  Cc1ccc2nc(-c3ccc(-c4nnc(SCC(=O)Nc5ccc(Cl)cc5)o4)cc3)[nH]c2c1         40.5

Recorded growth for "O=C(Cn1cc(CSc2nnc3oc4ccccc4n23)nn1)Nc1ccc(Br)cc1" , please?
20.3

Recorded growth for COC1CC(Cn2cc(COc3ccc4ccc(=O)oc4c3)nn2)C(OCc2ccccc2)C(OCc2ccccc2)C1OCc1ccccc1 (centres undefined) , please?
109

Recorded growth for "Cc1ccc(/C(N)=N/c2sc(-c3ccccc3)nc2-c2ccccc2)cc1" , please?
95

Recorded growth for "CCCn1c(=O)c2[nH]c(-c3ccc(OCc4nc5ccc(C(F)(F)F)cc5[nH]4)cc3)nc2n(CCC)c1=O" , please?
33.4

Recorded growth for "CC1(C)[C@@H](NCO)CC[C@]2(C)[C@H]3C(=O)C=C4[C@@H]5C[C@](C)(CO)CC[C@]5(C)CC[C@@]4(C)[C@]3(C)CC[C@@H]12" , please?
44

Recorded growth for "COc1cccc(-c2ccnc(/N=C(\N)Nc3ccc(S(=O)(=O)Nc4nc(C)cc(C)n4)cc3)n2)c1" , please?
86.4

Recorded growth for "Cc1noc2c(Cc3ccc([N+](=O)[O-])cc3)nn(CC(=O)N/N=C/c3ccc(Cl)cc3)c(=O)c12" , please?
10

Recorded growth for "O=C(CSc1nnc(-c2c[nH]c3ccccc23)n1-c1ccccc1)c1ccccc1" , please?
24.1

Recorded growth for "CN1CCCN(Cc2ccc(C(=O)Nc3cccc(Nc4ccc5cc(O)ccc5n4)c3)cc2C(F)(F)F)CC1" , please?
61.9

Recorded growth for C/C(=C\CSc1ccccc1C(=O)O)CCCC(C)CCCC(C)CCCC(C)C (centres undefined) , please?
56

Recorded growth for "Cc1cc(C)nc(SCC(=O)Nc2ccc(S(N)(=O)=O)cc2)n1" , please?
114

----------
# System: MCF7 breast
# Run Description: NCI-60 one-dose screen, 48 h
# Experimental Context: 10 µM
This is part of a sample that, as a whole, favours compounds with a hit. Of some 83,000 tested, about 20% had one in any assay. Active and inactive are the calls of the source. The calls were made as follows: active = growth percent below 10; inactive = the rest.
Answer with one of the outcomes given here: active, inactive

Examples with answers:
> print(dat)
                                   compound       cat
1  COc1cc(/C=N/NC(=O)c2ccc3nc(-c4ccc(Cl)cc4)[nH]c3c2)cc(OC)c1OC    active
2  C=C1CCC2C3(C)COC(c4cccc(F)c4)OC3CCC2(C)C1CC(O)C1=CCOC1=O (centres undefined)  inactive
3  Cc1ccc(-c2cc(C(=O)N=Nc3c(O)[nH]c4ccc(Br)cc34)c3ccccc3n2)cc1  inactive
4  CC(=O)NS(=O)(=O)c1ccc(NC(=O)CSC2=NC(c3ccccc3)C(C(C)=O)=C(C)N2)cc1 (centres undefined)  inactive
5  O=C(O)CCCCCCCCCCN1C(=O)/C(=C/c2cnc(-c3ccc(Cl)cc3)s2)SC1=S  inactive

Write down the call the test reported for this compound. Item: "Cc1ccc(C(=O)Nc2ccc(-n3c(C)nc4c(cnn4-c4ccccc4)c3=O)cc2)cc1"
inactive

Write down the call the test reported for this compound. Item: "O=C(CSc1nnc(-c2c[nH]c3ccccc23)n1-c1ccccc1)c1ccc(Cl)cc1"
inactive

Write down the call the test reported for this compound. Item: "Nc1nc(Nc2ccc(Cl)cc2)nn1Cc1cccc(Br)c1"
inactive

Write down the call the test reported for this compound. Item: "O=C(CNc1nc(-c2ccccc2)cs1)Nc1cccc(Cl)c1"
inactive

----------
# Test system: EKVX NSCLC
# Run Description: NCI-60 one-dose screen, 48 h (100 = growth as untreated, 0 = no growth, -100 = all killed)
# Experimental Context: 10 µM
This is part of a sample that, as a whole, favours compounds with a hit. Of some 83,000 tested, about 20% had one in any assay.
Measurement Name: growth (%)
Just the number please, in %, no unit attached.

Answered examples (6):
Compound	Scale Unit	Assay Value
CC(=O)c1cc(C(=O)c2ccc3c(c2)NC(=O)CO3)n2ccc3ccccc3c12	%	75
Cc1cccc2cc(-c3cc(-c4ccccc4)nc(=S)[nH]3)c(Cl)nc12	%	76.5
CC1=C(c2cc(-c3ccc(Cl)cc3)c(C#N)c(N)n2)C(c2ccccc2)NC(=S)N1 (stereo not drawn)	%	98.6
O=c1[nH]c2ccc(Cl)cc2cc1CSc1ccc(Nc2nccc(-c3ccc(Cl)cc3)n2)cc1	%	82
COc1cc2c3c(n(CCCN4CCOCC4)c(=O)c2cc1OC)-c1nc2c(cc1C3=O)OCO2	%	48.8
O=C(N/N=C/c1ccc(-c2cccc([N+](=O)[O-])c2)o1)c1[nH]c2ccc(Br)cc2c1-c1ccccc1	%	54.4

For the next question, use this compound.
Recorded growth for CCOC(=O)C1=C(N)N(c2ccccc2)C2=C(C(=O)CC(C)(C)C2)C1c1ccc(Cl)cc1 (stereo not drawn) , please?
27.7
